The values you see were collected from patent US11034672B1.

# study_system: WT-EGFR (H292 cell line) (Homo sapiens)
# Sequence (P00533 25-1210): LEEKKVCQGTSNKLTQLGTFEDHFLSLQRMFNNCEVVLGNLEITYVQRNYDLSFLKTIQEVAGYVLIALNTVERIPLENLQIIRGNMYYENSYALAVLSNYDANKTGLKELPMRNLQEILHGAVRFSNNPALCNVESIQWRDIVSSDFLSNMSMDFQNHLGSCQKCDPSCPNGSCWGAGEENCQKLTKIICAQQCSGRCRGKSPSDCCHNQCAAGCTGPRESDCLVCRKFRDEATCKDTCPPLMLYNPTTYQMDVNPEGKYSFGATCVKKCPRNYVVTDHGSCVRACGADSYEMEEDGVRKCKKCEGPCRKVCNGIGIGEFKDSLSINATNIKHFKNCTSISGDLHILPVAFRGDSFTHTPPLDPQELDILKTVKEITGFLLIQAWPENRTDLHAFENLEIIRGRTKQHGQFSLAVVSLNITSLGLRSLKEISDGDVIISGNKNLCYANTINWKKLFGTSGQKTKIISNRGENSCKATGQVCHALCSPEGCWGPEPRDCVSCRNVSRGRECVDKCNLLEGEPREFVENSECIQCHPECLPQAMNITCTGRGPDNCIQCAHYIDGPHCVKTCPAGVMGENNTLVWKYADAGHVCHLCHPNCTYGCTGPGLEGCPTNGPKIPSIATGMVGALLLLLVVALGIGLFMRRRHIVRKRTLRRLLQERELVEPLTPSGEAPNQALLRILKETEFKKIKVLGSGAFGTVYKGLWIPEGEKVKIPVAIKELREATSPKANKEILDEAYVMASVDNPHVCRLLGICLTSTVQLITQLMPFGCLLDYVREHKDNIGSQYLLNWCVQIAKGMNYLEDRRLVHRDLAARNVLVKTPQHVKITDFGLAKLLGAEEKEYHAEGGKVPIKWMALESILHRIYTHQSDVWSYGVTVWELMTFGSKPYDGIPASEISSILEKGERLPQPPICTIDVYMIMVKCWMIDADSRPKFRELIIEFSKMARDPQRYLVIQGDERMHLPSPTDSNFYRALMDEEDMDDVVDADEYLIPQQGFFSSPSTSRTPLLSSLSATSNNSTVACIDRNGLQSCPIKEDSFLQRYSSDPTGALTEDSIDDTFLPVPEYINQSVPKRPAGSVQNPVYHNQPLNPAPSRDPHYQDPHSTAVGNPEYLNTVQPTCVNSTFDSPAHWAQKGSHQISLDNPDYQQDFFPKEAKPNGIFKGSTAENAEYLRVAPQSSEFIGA
# test_description: H292 cell proliferation (Cell Titer Glo), WT-EGFR
# Assay type: cell-based
# test_context: H292 cells, 72 hours

compound: C=CC(=O)Nc1cc2c(Nc3ccc(OCc4ccccn4)c(Cl)c3)ncnc2cc1OCCN1CCOCC1 [compound 8]
IC50: > 100 nM

* * *

# study_system: HER2 S310F (Homo sapiens, UniProt P04626, S310F)
# Construct: expressed in transfected cells; host or cells: BaF3 (murine pro-B)
# Sequence (P04626 23-1255 S310F): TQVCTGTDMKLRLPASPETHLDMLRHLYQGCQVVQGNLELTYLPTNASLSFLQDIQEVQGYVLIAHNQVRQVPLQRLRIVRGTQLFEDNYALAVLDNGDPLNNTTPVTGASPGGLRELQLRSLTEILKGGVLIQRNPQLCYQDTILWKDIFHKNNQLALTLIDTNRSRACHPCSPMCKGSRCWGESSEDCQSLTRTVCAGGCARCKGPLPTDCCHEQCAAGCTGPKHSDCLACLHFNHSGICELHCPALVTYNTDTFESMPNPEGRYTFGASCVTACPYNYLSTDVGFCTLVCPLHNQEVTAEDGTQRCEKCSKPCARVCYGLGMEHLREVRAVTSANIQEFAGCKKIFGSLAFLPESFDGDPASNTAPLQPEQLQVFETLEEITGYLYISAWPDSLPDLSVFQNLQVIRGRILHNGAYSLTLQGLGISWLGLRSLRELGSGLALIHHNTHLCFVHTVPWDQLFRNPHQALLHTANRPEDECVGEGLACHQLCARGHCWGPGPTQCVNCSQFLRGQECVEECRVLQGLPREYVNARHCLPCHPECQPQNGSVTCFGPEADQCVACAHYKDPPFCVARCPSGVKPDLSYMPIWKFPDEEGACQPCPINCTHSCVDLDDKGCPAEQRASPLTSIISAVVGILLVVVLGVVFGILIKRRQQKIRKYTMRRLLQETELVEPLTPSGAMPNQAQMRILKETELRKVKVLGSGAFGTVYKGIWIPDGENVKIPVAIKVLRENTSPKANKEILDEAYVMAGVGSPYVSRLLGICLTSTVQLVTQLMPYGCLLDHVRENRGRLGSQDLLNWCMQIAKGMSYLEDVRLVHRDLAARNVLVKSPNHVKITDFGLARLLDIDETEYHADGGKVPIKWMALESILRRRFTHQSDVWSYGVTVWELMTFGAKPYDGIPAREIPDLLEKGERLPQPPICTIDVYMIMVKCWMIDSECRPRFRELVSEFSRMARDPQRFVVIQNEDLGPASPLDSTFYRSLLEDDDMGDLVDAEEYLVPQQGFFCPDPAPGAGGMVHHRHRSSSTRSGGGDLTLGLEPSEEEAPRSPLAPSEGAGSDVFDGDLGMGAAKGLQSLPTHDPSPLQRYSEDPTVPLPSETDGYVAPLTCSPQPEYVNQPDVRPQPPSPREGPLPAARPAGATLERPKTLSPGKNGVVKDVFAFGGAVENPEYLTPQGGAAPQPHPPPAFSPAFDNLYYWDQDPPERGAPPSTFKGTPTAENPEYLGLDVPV
# test_description: BaF3 cell proliferation assay, HER2 S310F (Table B)
# Type: cell-based
# test_context: potency code, 3 days, CellTiterGlo, read-out: HER2 S310F (Activity for Inhibiting HER2)
Quick reference: IC50 of the listed items.

molecule: C=CC(=O)Nc1cc2c(Nc3ccc(OCc4ccccn4)c(Cl)c3)ncnc2cc1N(C)CCCN1CCOCC1 [compound 12]
IC50: 100 to 200 nM
--
molecule: C=CC(=O)Nc1cc2c(Nc3ccc(OCc4ccccn4)c(Cl)c3)ncnc2cc1OCCN1CCC(N(C)C)CC1 [compound 76]
IC50: 30 to 50 nM
--
molecule: CC#CC(=O)Nc1cc2c(Nc3cc(Cl)c(OCc4cccc(F)c4)cc3F)ncnc2cc1O[C@@H]1CCN(C)C1 [compound 151]
IC50: 10 to 20 nM
--
molecule: C=CC(=O)Nc1cc2c(Nc3ccc(OCc4ccccn4)c(Cl)c3)ncnc2cc1N1CCC(N(C)C)C1 (stereo not drawn) [compound 64]
IC50: 300 to 500 nM
--
molecule: C=CC(=O)Nc1cc2c(Nc3ccc(OCc4ccccn4)c(Cl)c3)ncnc2cc1OCCN1CCC1 [compound 33]
IC50: 10 to 20 nM
--
molecule: C=CC(=O)Nc1cc2c(Nc3ccc(OCc4ccccn4)nc3)ncnc2cc1OCCN1CCOCC1 [compound 71]
IC50: 200 to 300 nM
--
molecule: C=CC(=O)Nc1cc2c(Nc3ccc(OCc4ccccn4)c(Cl)c3)ncnc2cc1OCCCN1CCOCC1 [compound 21]
IC50: 5 to 10 nM
--
molecule: C=CC(=O)Nc1cc2c(Nc3ccc(OCc4cccc(C)n4)c(Cl)c3)ncnc2cc1OCCN1CCOCC1 [compound 128]
IC50: 100 to 200 nM
--
molecule: C=CC(=O)Nc1cc2c(Nc3ccc(OCc4ccccn4)c(Cl)c3)c(C#N)cnc2cc1OCCN1CCOCC1 [compound 11]
IC50: 50 to 100 nM
--
molecule: CC#CC(=O)Nc1cc2c(Nc3ccc(OCc4ccccn4)c(Cl)c3)ncnc2cc1OCCN1CCN(C)CC1 [compound 70]
IC50: 5 to 10 nM
--
molecule: C=CC(=O)Nc1cc2c(Nc3ccc(Oc4ccccc4)cc3)ncnc2cc1C#C[C@@H]1[C@H]2CN(C)C[C@@H]12 [compound 106]
IC50: 30 to 50 nM
--
molecule: C=CC(=O)Nc1cc2c(Nc3ccc(CC(=O)c4ccccn4)c(Cl)c3)ncnc2cc1O[C@@H]1CCN(C)C1 [compound 121]
IC50: 30 to 50 nM
--
molecule: C=CC(=O)Nc1cc2c(Nc3ccc(OCc4ccccn4)c(Cl)c3)ncnc2cc1OCC1(CN(C)C)CC1 [compound 98]
IC50: 20 to 30 nM
--
molecule: C=CC(=O)Nc1cc2c(Nc3ccc(OCc4ccccn4)c(Cl)c3)ncnc2cc1OCC(C)(C)N(C)C [compound 94]
IC50: 30 to 50 nM
--
molecule: C=CC(=O)Nc1cc2c(Nc3ccc(OCc4ccccn4)cc3F)ncnc2cc1OC1CCN(C)C1 (stereo not drawn) [compound 59]
IC50: 100 to 200 nM

* * *

Quick reference: pIC50 of the listed items.
# study_system: HER2 S310F (Homo sapiens, UniProt P04626, S310F)
# Construct: expressed in transfected cells; host or cells: BaF3 (murine pro-B)
# test_description: Activity for inhibiting HER2 (Table B), HER2 S310F
# Type: cell-based
# test_context: read-out: HER2 S310F, potency code (IC50)
pIC50: −log10 of the molar value.

compound: C=CC(=O)Nc1cc2c(Nc3ccc(OCc4cccnn4)c(Cl)c3)ncnc2cc1OCCCN1CC(OC)C1 [compound 177]
pIC50: 7.70 to 8.00

compound: C=CC(=O)Nc1cc2c(Nc3ccc(OCc4ccccn4)c(Cl)c3)ncnc2cc1C#C[C@@H]1CCCN1C [compound 87]
pIC50: 7.30 to 7.52

compound: CC#CC(=O)Nc1cc2c(Nc3cc(Cl)c(OCc4cccc(F)c4)cc3F)ncnc2cc1OCCN1CC(OC)C1 [compound 152]
pIC50: 8.00 to 8.30

compound: C=CC(=O)Nc1cc2c(Nc3ccc(OCc4ccnc(C)c4)c(Cl)c3)ncnc2cc1OCCN1CCOCC1 [compound 142]
pIC50: 6.30 to 6.52

compound: C=CC(=O)Nc1cc2c(Nc3ccc(OCc4ccccn4)c(Cl)c3)ncnc2cc1N1CC2(CCN2C)C1 [compound 50]
pIC50: 6.52 to 6.70

compound: CC#CC(=O)Nc1cc2c(Nc3ccc(OCc4cnccn4)c(Cl)c3)ncnc2cc1OCCCN1CCOCC1 [compound 170]
pIC50: 8.00 to 8.30

compound: C=CC(=O)Nc1cc2c(Nc3ccc(OCc4ccccn4)c(Cl)c3)ncnc2cc1OCC1CCCN1C (stereo not shown) [compound 14]
pIC50: 7.00 to 7.30

* * *

Quick reference: pIC50 of the listed items.
# study_system: HER2 WT (Homo sapiens)
# Sequence (P04626 23-1255): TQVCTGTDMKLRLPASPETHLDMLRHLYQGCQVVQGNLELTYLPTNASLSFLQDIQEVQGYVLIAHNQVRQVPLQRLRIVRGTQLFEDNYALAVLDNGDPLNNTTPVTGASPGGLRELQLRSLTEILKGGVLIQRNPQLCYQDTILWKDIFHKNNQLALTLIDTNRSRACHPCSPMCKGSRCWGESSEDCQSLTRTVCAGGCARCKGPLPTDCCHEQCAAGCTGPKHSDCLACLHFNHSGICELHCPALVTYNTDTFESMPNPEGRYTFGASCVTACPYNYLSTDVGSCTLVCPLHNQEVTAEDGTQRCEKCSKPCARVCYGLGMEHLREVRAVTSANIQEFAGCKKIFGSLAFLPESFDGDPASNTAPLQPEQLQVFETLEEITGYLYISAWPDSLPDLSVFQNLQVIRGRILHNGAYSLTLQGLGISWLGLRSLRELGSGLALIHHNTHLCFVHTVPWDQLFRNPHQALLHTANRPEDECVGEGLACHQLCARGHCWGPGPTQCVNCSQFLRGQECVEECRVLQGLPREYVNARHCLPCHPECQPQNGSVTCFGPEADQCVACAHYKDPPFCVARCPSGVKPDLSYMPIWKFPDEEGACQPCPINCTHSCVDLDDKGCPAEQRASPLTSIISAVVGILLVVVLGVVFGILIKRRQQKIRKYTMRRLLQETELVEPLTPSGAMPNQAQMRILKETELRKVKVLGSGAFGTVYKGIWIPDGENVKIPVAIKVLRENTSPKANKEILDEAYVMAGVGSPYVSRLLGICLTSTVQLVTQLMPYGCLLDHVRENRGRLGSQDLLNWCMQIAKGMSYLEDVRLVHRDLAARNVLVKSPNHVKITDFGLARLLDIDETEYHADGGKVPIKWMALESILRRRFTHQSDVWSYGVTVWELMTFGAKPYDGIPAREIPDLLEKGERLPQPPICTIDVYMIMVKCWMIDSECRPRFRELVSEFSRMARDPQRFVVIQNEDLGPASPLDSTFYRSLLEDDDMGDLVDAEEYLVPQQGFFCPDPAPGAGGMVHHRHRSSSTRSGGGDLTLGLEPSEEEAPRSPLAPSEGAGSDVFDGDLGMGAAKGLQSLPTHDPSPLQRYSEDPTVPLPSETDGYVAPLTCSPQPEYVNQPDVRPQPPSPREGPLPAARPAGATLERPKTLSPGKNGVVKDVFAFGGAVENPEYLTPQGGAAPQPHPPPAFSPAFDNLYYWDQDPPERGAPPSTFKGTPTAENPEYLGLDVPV
# test_description: Activity for inhibiting HER2 (Table B), HER2 WT
# Type: cell-based
# test_context: Table B; read-out: HER2 WT, potency code (IC50)
pIC50: −log10 of the molar value.

compound: C=CC(=O)Nc1cc2c(Nc3ccc(OCc4ccccn4)c(Cl)c3)ncnc2cc1OCCN1CCC(OC)C1 (stereo not shown)
pIC50: > 8.30

compound: C=CC(=O)Nc1cc2c(Nc3ccc(OCc4ccccn4)c(Cl)c3)ncnc2cc1OCCCN1CCCC1
pIC50: > 8.30

compound: C=CC(=O)Nc1cc2c(Nc3ccc(OCc4ccccn4)c(Cl)c3)ncnc2cc1OC1CCN(C)C1 (stereo not shown)
pIC50: > 8.30

compound: C=CC(=O)Nc1cc2c(Nc3ccc(OCc4cccc(F)c4)c(Cl)c3)ncnc2cc1N(C)CCN1CCOCC1
pIC50: 6.70 to 7.00

compound: C=CC(=O)Nc1cc2c(Nc3ccc(OCc4ccccn4)c(Cl)c3)ncnc2cc1OCCCN1CC2CC1CO2 (stereo not shown)
pIC50: > 8.30

compound: C=CC(=O)Nc1cc2c(Nc3ccc(OCc4ccccn4)c(Cl)c3)ncnc2cc1OCCN1CC(OC)C1
pIC50: > 8.30

compound: C=CC(=O)Nc1cc2c(Nc3ccc(OCc4ccccn4)c(Cl)c3)ncnc2cc1N1CC2CCN(C)C2C1 (stereo not shown)
pIC50: 7.00 to 7.30

* * *

# study_system: EGFR WT (Homo sapiens)
# test_description: Activity for inhibiting EGFR (Table A), EGFR WT
# Format: cell-based
# test_context: read-out: EGFR WT, potency code (IC50)
pIC50: −log10 of the molar value.
observed_property: pIC50

compound: C=CC(=O)Nc1cc2c(Nc3ccc(OCc4ccccn4)cc3F)ncnc2cc1OC1CCN(C)C1 (stereo not shown)
result: 6.30 to 6.52

compound: C=CC(=O)Nc1cc2c(Nc3ccc(OCc4cccnn4)c(Cl)c3)ncnc2cc1OCCN1CCN(C)CC1
result: 6.00 to 6.30

compound: C=CC(=O)Nc1cc2c(Nc3ccc(OCc4cccnn4)c(Cl)c3)ncnc2cc1OCCN1CC(OC)C1
result: < 6.00

compound: C=CC(=O)Nc1cc2c(Nc3ccc(OCc4cccc(F)c4)c(Cl)c3)ncnc2cc1N(C)CCN(C)C
result: < 6.00

compound: CC#CC(=O)Nc1cc2c(Nc3cc(Cl)c(OCc4cccc(F)c4)cc3F)ncnc2cc1OCCN1CC2CCC(C1)O2
result: 6.52 to 6.70

compound: C=CC(=O)Nc1cc2c(Nc3ccc(OCc4ccccn4)c(Cl)c3)ncnc2cc1N1CCN(C)CC1
result: 6.00 to 6.30

compound: C=CC(=O)Nc1cc2c(Nc3ccc(OCc4ccccn4)c(Cl)c3)ncnc2cc1N1CC2(CN(C)C2)C1
result: 6.00 to 6.30

* * *

# study_system: EGFR WT (Homo sapiens, UniProt P00533)
# Sequence (P00533 25-1210 N540K): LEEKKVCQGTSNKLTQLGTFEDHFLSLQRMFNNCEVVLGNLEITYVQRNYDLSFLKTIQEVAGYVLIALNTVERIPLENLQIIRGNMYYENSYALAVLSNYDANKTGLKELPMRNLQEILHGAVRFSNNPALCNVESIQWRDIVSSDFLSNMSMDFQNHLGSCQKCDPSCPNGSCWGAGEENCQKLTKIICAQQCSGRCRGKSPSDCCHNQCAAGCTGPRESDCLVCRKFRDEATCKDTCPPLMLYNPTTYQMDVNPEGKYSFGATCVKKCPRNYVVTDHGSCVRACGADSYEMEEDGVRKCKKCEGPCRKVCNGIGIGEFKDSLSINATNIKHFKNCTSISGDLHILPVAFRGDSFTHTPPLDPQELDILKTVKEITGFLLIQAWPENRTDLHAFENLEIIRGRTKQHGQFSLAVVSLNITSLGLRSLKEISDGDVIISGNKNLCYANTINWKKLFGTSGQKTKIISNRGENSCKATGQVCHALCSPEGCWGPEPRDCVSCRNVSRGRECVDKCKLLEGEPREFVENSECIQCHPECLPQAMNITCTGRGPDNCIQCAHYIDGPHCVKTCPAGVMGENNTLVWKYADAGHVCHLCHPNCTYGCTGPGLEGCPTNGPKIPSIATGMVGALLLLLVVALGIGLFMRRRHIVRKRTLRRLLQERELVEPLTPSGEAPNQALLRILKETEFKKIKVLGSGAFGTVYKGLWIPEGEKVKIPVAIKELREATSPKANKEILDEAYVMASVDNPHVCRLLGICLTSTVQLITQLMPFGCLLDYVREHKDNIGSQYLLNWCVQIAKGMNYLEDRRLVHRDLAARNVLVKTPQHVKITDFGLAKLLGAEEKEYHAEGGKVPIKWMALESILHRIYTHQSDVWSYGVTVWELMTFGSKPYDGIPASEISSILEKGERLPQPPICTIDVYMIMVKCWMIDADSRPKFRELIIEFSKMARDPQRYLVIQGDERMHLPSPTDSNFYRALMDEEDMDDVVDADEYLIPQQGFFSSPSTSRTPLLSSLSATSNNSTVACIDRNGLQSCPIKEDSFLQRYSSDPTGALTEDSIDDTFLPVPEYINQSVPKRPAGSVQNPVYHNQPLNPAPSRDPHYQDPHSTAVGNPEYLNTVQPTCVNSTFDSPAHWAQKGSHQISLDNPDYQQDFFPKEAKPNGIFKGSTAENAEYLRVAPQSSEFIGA
# test_description: BaF3 cell proliferation assay, EGFR WT (Table A)
# Assay type: cell-based
# test_context: potency code, 3 days, CellTiterGlo, read-out: EGFR WT (Activity for Inhibiting EGFR)
observed_property: IC50

compound: C=CC(=O)Nc1cc2c(Nc3ccc(Oc4cccc(Cl)c4)cc3)ncnc2cc1OCCN1CCOCC1
study_system: EGFR WT (Homo sapiens, UniProt P00533)
result: > 1000 nM
--
compound: C=CC(=O)Nc1cc2c(Nc3ccc(OCc4ccccn4)c(Cl)c3)ncnc2cc1OCC[C@H]1CCCN1C
study_system: EGFR WT (Homo sapiens, UniProt P00533)
result: 100 to 200 nM
--
compound: C=CC(=O)Nc1cc2c(Nc3ccc(OCc4cccc(F)c4)c(Cl)c3)ncnc2cc1OCCCN1C[C@@H]2C[C@H]1CO2
study_system: EGFR WT (Homo sapiens, UniProt P00533)
result: 300 to 500 nM
--
compound: CC#CC(=O)Nc1cc2c(Nc3cc(Cl)c(OCc4cccc(F)c4)cc3F)ncnc2cc1OCCN1CCOCC1
study_system: EGFR WT (Homo sapiens, UniProt P00533)
result: 100 to 200 nM
--
compound: C=CC(=O)Nc1cc2c(Nc3ccc(OCc4ccccn4)c(Cl)c3)ncnc2cc1OCCN1CC2(CN(C)C2)C1
study_system: EGFR WT (Homo sapiens, UniProt P00533)
result: 300 to 500 nM
--
compound: C=CC(=O)Nc1cc2c(Nc3ccc(OCc4cccc(F)c4)c(Cl)c3)ncnc2cc1OCCN1CCOCC1
study_system: EGFR WT (Homo sapiens, UniProt P00533)
result: 300 to 500 nM
--
compound: C=CC(=O)Nc1cc2c(Nc3ccc(OCc4ccccn4)c(Cl)c3)ncnc2cc1OCCN1CCOCC1
study_system: EGFR WT (Homo sapiens, UniProt P00533)
result: 300 to 500 nM
--
compound: C=CC(=O)Nc1cc2c(Nc3ccc(CC(=O)c4ccccn4)c(Cl)c3)ncnc2cc1O[C@@H]1CCN(C)C1
study_system: EGFR WT (Homo sapiens, UniProt P00533)
result: > 1000 nM
--
compound: C=CC(=O)Nc1cc2c(Nc3ccc(OCc4cccc(F)c4)c(Cl)c3)ncnc2cc1OCCN1CCN(C)CC1
study_system: EGFR WT (Homo sapiens, UniProt P00533)
result: 200 to 300 nM
--
compound: C=C(F)C(=O)Nc1cc2c(Nc3ccc(OCc4ccccn4)c(Cl)c3)ncnc2cc1OCCN1CCOCC1
study_system: EGFR WT (Homo sapiens, UniProt P00533)
result: 30 to 50 nM
--
compound: C=CC(=O)Nc1cc2c(Nc3cc(Cl)c(OCc4cccc(F)c4)cc3F)ncnc2cc1OCCN1CCOCC1
study_system: EGFR WT (Homo sapiens, UniProt P00533)
result: 200 to 300 nM
--
compound: C=CC(=O)Nc1cc2c(Nc3ccc(OCc4ccccn4)c(Cl)c3)ncnc2cc1OCCCN1CCN(C)CC1
study_system: EGFR WT (Homo sapiens, UniProt P00533)
result: 300 to 500 nM
--
compound: C=CC(=O)Nc1cc2c(Nc3ccc(OCc4ccccn4)c(Cl)c3)ncnc2cc1OCCC1COCCN1C (stereo not drawn)
study_system: EGFR WT (Homo sapiens, UniProt P00533)
result: > 1000 nM
--
compound: CC#CC(=O)Nc1cc2c(Nc3cc(Cl)c(OCc4cccc(F)c4)cc3F)ncnc2cc1OCCN1CCN(C)CC1
study_system: EGFR WT (Homo sapiens, UniProt P00533)
result: 50 to 100 nM
--
compound: C=CC(=O)Nc1cc2c(Nc3ccc(OCc4ccccn4)c(Cl)c3)ncnc2cc1OCCN1CCC(N(C)C)CC1
study_system: EGFR WT (Homo sapiens, UniProt P00533)
result: 200 to 300 nM
